The entries below are paired with their reported kon.
Target: T1, mature recombinant cynomolgus GDF-15 with an N-terminal Flag and His tag, biotinylated (cynomolgus, UniProt G7PWZ3 197-308, chemically biotinylated with EZ link Sulfo-NHS-LC-Biotin, sites not stated)
T1 construct: not shown: N-terminal Flag and His tags
T1 sequence: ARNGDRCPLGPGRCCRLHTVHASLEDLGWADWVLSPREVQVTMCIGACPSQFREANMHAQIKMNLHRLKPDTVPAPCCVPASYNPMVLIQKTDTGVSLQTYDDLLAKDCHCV
Assay: SPR Biacore 8K, 25 C, biotinylated GDF-15 on streptavidin C1 chip, Fab as analyte
Unit M⁻¹ s⁻¹ implied. Number only.

# example entries with known answers
AB1170242 Fab (Fab, V domains shown, Fab of the humanized antibody, expressed as in Spooner et al. 2015) VH: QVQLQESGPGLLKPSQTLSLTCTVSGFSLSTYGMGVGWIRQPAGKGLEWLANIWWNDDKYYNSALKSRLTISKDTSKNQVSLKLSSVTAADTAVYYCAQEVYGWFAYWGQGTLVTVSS VL: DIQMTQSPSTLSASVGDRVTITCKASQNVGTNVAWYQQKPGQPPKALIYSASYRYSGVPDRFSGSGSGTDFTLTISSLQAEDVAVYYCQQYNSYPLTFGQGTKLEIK
8.5e+06
AB1170245 Fab (Fab, V domains shown, Fab of the humanized antibody, expressed as in Spooner et al. 2015) VH: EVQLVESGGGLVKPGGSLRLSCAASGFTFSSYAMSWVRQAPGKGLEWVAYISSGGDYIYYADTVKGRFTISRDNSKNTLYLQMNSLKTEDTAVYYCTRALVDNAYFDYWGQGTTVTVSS VL: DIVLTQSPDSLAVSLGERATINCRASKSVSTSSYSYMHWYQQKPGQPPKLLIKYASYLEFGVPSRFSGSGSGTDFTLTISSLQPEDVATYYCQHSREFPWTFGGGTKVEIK
3.42e+06
AB1170243 Fab (Fab, V domains shown, Fab of the humanized antibody, expressed as in Spooner et al. 2015) VH: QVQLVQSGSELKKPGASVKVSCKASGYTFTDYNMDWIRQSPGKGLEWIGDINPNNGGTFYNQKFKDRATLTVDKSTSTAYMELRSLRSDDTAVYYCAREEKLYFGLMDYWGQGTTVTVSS VL: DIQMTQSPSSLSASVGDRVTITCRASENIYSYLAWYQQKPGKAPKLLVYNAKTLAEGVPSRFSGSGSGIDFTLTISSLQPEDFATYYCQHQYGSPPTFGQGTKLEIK
6.23e+06

Next:
Problem: Name the recorded kon for AB1170249 Fab (Fab, V domains shown, Fab of the humanized antibody, expressed as in Spooner et al. 2015) VH: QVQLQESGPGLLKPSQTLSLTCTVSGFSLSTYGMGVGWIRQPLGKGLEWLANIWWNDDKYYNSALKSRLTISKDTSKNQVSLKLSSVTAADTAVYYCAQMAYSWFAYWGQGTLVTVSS VL: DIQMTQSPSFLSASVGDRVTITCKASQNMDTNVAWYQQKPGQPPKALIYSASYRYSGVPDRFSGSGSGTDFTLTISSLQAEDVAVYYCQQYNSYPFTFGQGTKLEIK .
Solution: 4.15e+06
